Target: P-TEFb/Tat1:57/AFF4 (HIV-1 (Tat); (P-TEFb, AFF4), UniProt O60563;P50750;P04608;Q9UHB7 1-264;1-330;1-57;2-73)
Assay: EMSA; 250-fold excess yeast tRNA; RNA 100 pM
Conditions: protein: recombinant; copies: 1;1;1;1; label: 5'-32P; hairpin with UCU bulge
Property Measured: pKd
Answers are plain numbers, as −log10 of the molar value.

INPUT: Bench note: what pKd did GGCAGAUCUGAGCCUGGGAGCUCUCUGCC (structured_RNA) [HIV-1 TAR] show?
OUTPUT: 8.05

// provenance: paper PMC6379670
